system: primary neuronal cultures from embryonic rat brains; assay: Rat oscillation assay (FLIPR, neuronal calcium oscillations); type: cell-based; conditions: AUC of fluorescence measured 20 min after compound addition; read-out: FLIPR: IC50 [nM] 20 min
Assay endpoint: IC50 (nM)
Numbers only here, please. The scale is nM.

CC(Oc1nccc(CNC(=O)NC2CC3(CCC3)C2)n1)C(F)(F)F (single isomer, unassigned) [Example 180]: 78
CC(Oc1cccc(C2(NC(=O)NC3CC4(CCC4)C3)CC2)c1)C(F)(F)F (single isomer, unassigned) [Example 169]: 20

# input for lookup
Data request: Reported IC50, compound COCC(Oc1cc(CNC(=O)NC2CC3(CCC3)C2)ccn1)C(F)(F)F (single isomer, unassigned) [Example 171] : ____
Data returned: 377
